Every entry's value here was drawn from patent US6461997B1.

Tested on: SOLNI (black nightshade)
measurementProtocol: Pre-emergence herbicidal activity, warm season
Type: in vivo, Solanum nigrum
recordedConditions: GR80 = lowest tested rate (300, 100, 30, 10 g/ha) with 80% or greater inhibition; approx. 14 days after treating; 30/21° C.
Description: Tables 5 to 8 summarize results of tests conducted as described below to determine the pre-emergence herbicidal activity, in the form of a GR80 value, of illustrative compounds of this invention. […] Compounds of the invention were typically applied at rates of 300, 100, 30, and 10 g/ha. […] Approximately 14 days after planting and treating, the plants were observed and herbicidal efficacy recorded as percent inhibition by comparison with untreated plants. […]
measuredParameter: Pre-emergence activity (GR80) SOLNI (g/ha)
Supply the numeric figure in g/ha, leaving out any unit text.

> print(dat)
                                   compound                    measuredparameter  valueobserved
1  CCCN(CC)C(=O)n1cnc(S(=O)(=O)C(F)(F)Cl)n1  Pre-emergence activity (GR80) SOLNI            100
2  C#CCN(C)C(=O)n1cnc(S(=O)(=O)C(F)(F)C(F)(F)Br)n1  Pre-emergence activity (GR80) SOLNI            300

[Q] Which Pre-emergence activity (GR80) SOLNI is reported for this compound? CCN(CC)C(=O)n1cnc(S(=O)(=O)C(F)(F)SCCOC)n1
[A] 300

[Q] Which Pre-emergence activity (GR80) SOLNI is reported for this compound? CCSC(F)(F)S(=O)(=O)c1ncn(C(=O)N(C)C2CCCCC2)n1
[A] 300

[Q] Which Pre-emergence activity (GR80) SOLNI is reported for this compound? CCSC(F)(F)S(=O)(=O)c1ncn(C(=O)N2CCCC2)n1
[A] 300

[Q] Which Pre-emergence activity (GR80) SOLNI is reported for this compound? C=C(C)CC(F)(F)S(=O)(=O)c1ncn(C(=O)N(CC)CC)n1
[A] 100

[Q] Which Pre-emergence activity (GR80) SOLNI is reported for this compound? CCN(CC)C(=O)n1cnc(S(=O)(=O)C(F)(F)SCC(=O)OC)n1
[A] 300

[Q] Which Pre-emergence activity (GR80) SOLNI is reported for this compound? CCN(CC)C(=O)n1cnc(S(=O)(=O)C(F)(F)c2ccccc2)n1
[A] 300
